These measurements were taken from the supplement of paper PMC9942255.

- System: Bacillus subtilis DB104 (SP-AmyQ fusion secretion)
- assay-procedure: AmyQ secretion efficiency, weighted average sort bin (1 = best secretion, 10 = worst) (bin number (weighted average, 1-10)); higher = lower secretion efficiency
Is AmyQ secretion efficiency at least 2? Then y. If not, n.

Reference set, count: 5
# residue-sequence, assayed-target, category
measured = [
    ("MGLGKKLSVAVAASFMSLSISLPGIQAAEG", "Bacillus subtilis DB104 (SP-AmyQ fusion secretion)", "n"),
    ("MTKKAWFLPLVCVSGWLAPAASASAQTT", "Bacillus subtilis DB104 (SP-AmyQ fusion secretion)", "y"),
    ("MRSYIKVLTMCFLGLILFVPTRLADNS", "Bacillus subtilis DB104 (SP-AmyQ fusion secretion)", "y"),
    ("MLKRTSFVSSLFISSAVLLSILLPSGQAHADDD", "Bacillus subtilis DB104 (SP-AmyQ fusion secretion)", "y"),
    ("MLTKRTTTSLLTIYIMLLGLIAWFPGAAQAEEK", "Bacillus subtilis DB104 (SP-AmyQ fusion secretion)", "y"),
]

Problem: # bool: AmyQ secretion efficiency of MKLAKRVSALTPSTTLAITAKHKEL >= 2
Solution: y

Problem: # bool: AmyQ secretion efficiency of MKRLLSTLLIGIMLLTFAPSAFAAQD >= 2
Solution: n

Problem: # bool: AmyQ secretion efficiency of MKKCLLFLTTIALILSLSTNCFAKNT >= 2
Solution: n

Problem: # bool: AmyQ secretion efficiency of MKKAAAVLLSLGLVFGFSYGAGHVAEAATS >= 2
Solution: y

Problem: # bool: AmyQ secretion efficiency of MRKTIFAFLTGLMMFIFTSSGTITAASASPD >= 2
Solution: n
